Reference source for all entries: patent US20250066745A1

Assay: Luminescence activity assay of purified Gaussia luciferase mutants on fluoro-coelenterazine
Format: biochemical
Set-up: key: ratio of mutant luminescence intensity to wild-type Gaussia luciferase
Conditions: Substrate f-CTZ (Table 16)
parameter_measured: Activity of mutant relative to wild-type Gaussia luciferase without the signal peptide

• F26V N27Y V29N A30D V31D D32L S33R A36R T37W L40Y K180R: Gaussia luciferase mutant (protein, SIGNAL (1)..(17), Gaussia luciferase mutant) MGVKVLFALICIAVAEAKPTENNEDVYINDDLRNFRWTDYDADRGKLPGKKLPLEVLKEMEANARKAGCTRGCLICLSHIKCTPKMKKFIPGRCHTYEGDKESAQGGIGEAIVDIPEIPGFKDLEPMEQFIAQVDLCVDCTTGCLKGLANVQCSDLLKKWLPQRCATFASKIQGQVDKIRGAGGD = 0.065
